Test system: OV90
Test: Primary qHTS to identify gynecologic anti-cancer compounds using libraries of approved drugs and bioactive compounds (AID 1345084); note: nearly all actives have a fitted effect of over 55% in size
Conditions: Gynecologic cancer cell panel viability, ATPlite luminescence, 48 h; series mostly up to 57.5 µM
Inconclusive results are not listed. Active and inactive are the calls of the source. Calls come from the whole dose curve; as a rule, active = well fitted cell-killing curve with a large enough effect; inconclusive = small, poorly fitted or top-dose-only effect, or effect the other way; inactive = flat fitted curve, though single readings scatter.
quantity-kind: outcome

Clc1ccc(C(Cn2ccnc2)OCc2ccsc2Cl)c(Cl)c1 (centres undefined) | inactive
Nc1cccc2c1CN(C1CCC(=O)NC1=O)C2=O (centres undefined) | inactive
NC(=O)Cc1cccc(C(=O)c2ccccc2)c1N | inactive
Clc1ccc(C(Cn2ccnc2)OCc2ccc(Sc3ccccc3)cc2)c(Cl)c1 (centres undefined) | inactive

###

System: HEK293T
Experiment: qHTS assay to identify novel small-molecules to repurpose for Merkel cell carcinoma treatment (AID 1296009); note: nearly all actives have a fitted effect of over 60% in size
Settings: MCC and control cell lines, CellTiter-Glo viability, 72 h; at 44.8 µM (top of the series) unless noted
Inconclusive results are not listed. The source made the active and inactive calls. The call rests on the fitted dose curve; in most records, active means well fitted inhibition curve with a large enough effect; inconclusive means small, poorly fitted or top-dose-only effect; inactive means flat fitted curve, though single readings scatter.
quantity-kind: outcome

Worked cases, answers included:
Cc1ncc([N+](=O)[O-])n1CC(C)O (stereo not drawn) | inactive
COc1ccc2cc([C@H](C)C(=O)O)ccc2c1 | inactive
C[C@H](Cn1cnc2c(N)ncnc21)OCP(=O)(O)O | inactive
Cc1cc2cc3c(C)cc(=O)oc3c(C)c2o1 | inactive
O=c1ccc2ccc(O)c(O)c2o1 | inactive

State outcome (HEK293T) of Cn1c(NCCN(CCO)CCCc2ccc([N+](=O)[O-])cc2)cc(=O)n(C)c1=O .
inactive

State outcome (HEK293T) of CC1(C)C(=O)N(CCN2CCC(C(=O)c3ccc(F)cc3)CC2)c2ccccc21 .
inactive
